- System: NCI-H23 lung cancer cells
- Experimental Details: antitumor activity, sulforhodamine B cell growth assay, NCI-H23
- Format: cell-based
- Assay Context: NCI-H23, drug exposure 48 hours; read-out: GI50 value: 50% growth inhibitory concentration
- Method: The THIQ compound containing a macrocyclic structure of the present invention was administered to various cancer cell lines, and the antitumor activity (Go value) was observed. […] Cells were plated at an appropriate density in a 96-well plate in RPMI 1640 together with 5% fetal bovine serum, and adhered overnight. […] The absorbance of the control well (C) and the test well (T) was measured at 525 nm. […]
Form field: GI50 (one value per entry).
Just the number in nM, nothing appended.

COC1=C(C)C(=O)C2=C(C1=O)[C@H](CNC(=O)[C@H](C)N)N1C(C2)[C@H]2c3c(cc(C)c(OC)c3O)C[C@@H]([C@@H]1C#N)N2C (stereo partly shown) [Cyanosafracin B, reference compound]; 290

**Q:** Param readout = GI50; param system = NCI-H23 lung cancer cells; param query = C=C1/C=C/CN[C@@H](C)C(=O)NCC2c3c(c(c(C)c4c3OCO4)OC1)C[C@H]1[C@H]3c4c(cc(C)c(OC)c4O)C[C@@H]([C@H](C#N)N21)N3C ; response: value
**A:** 93

**Q:** Param readout = GI50; param system = NCI-H23 lung cancer cells; param query = COc1c(C)cc2c(c1O)C1C3Cc4c5c(C)c6c(c4C(CNC(=O)C(C)NC(=O)OCC4C=C(CO5)CC5C(=O)N(c7ccccc7)C(=O)C45)N3C(C#N)C(C2)N1C)OCO6 (stereo not shown) ; response: value
**A:** 110

**Q:** Param readout = GI50; param system = NCI-H23 lung cancer cells; param query = COc1c(C)cc2c(c1O)C1C3Cc4c5c(C)c6c(c4C(CNC(=O)C(C)NCC=CCO5)N3C(C#N)C(C2)N1C)OCO6 (stereo not shown) ; response: value
**A:** 31
